Value source: patent US12590088B2

# experimental-target: JAK2 (Homo sapiens, UniProt O60674)
# Sequence (O60674 whole entry): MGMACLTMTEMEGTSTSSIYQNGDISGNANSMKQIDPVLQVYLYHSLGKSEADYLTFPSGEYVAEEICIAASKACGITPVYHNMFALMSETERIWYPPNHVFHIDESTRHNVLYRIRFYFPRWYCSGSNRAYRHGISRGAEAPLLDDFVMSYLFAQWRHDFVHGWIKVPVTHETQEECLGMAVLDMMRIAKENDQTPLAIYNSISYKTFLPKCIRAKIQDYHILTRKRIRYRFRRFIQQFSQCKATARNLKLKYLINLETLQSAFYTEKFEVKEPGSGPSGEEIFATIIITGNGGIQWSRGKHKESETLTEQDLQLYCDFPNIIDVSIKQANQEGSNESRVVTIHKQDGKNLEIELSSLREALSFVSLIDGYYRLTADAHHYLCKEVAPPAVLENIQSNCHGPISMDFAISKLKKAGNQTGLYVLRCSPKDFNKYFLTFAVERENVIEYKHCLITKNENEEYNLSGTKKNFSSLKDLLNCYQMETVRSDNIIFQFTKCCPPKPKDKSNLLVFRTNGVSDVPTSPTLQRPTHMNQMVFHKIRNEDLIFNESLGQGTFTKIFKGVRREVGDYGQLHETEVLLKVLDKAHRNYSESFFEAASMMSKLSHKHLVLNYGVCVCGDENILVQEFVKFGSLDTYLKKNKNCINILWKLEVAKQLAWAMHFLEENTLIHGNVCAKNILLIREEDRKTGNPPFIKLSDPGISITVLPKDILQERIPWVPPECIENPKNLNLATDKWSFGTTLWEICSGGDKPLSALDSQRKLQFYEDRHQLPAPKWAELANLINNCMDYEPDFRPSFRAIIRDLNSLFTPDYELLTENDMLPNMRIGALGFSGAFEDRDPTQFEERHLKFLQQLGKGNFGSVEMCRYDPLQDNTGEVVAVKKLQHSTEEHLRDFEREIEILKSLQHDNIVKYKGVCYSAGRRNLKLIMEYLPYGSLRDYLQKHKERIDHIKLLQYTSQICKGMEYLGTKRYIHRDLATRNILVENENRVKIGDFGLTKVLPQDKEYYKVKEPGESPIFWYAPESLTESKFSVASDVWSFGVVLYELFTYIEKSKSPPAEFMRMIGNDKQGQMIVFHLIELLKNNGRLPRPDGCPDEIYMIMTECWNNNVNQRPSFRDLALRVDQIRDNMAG
# experiment-description: JAK2 IC50 measurement
# Type: biochemical
measured-quantity: IC50 (µM)
Reply numerically in µM, unit not repeated.

Q) May I ask what IC50 has been recorded for CNC(=O)c1cnc2[nH]ccc2c1N[C@H]1CCCN(Cc2cccc(OC)c2)C1 [Compound 18b] ?
A) 0.533

Q) May I ask what IC50 has been recorded for CNC(=O)c1cnc2[nH]ccc2c1NC1CC2CCC(C1)N2Cc1cccc(C#N)c1 (centres unmarked) [Compound 17f] ?
A) 0.0588

---

# experimental-target: UniProtKB P23458
# Sequence (P23458 whole entry): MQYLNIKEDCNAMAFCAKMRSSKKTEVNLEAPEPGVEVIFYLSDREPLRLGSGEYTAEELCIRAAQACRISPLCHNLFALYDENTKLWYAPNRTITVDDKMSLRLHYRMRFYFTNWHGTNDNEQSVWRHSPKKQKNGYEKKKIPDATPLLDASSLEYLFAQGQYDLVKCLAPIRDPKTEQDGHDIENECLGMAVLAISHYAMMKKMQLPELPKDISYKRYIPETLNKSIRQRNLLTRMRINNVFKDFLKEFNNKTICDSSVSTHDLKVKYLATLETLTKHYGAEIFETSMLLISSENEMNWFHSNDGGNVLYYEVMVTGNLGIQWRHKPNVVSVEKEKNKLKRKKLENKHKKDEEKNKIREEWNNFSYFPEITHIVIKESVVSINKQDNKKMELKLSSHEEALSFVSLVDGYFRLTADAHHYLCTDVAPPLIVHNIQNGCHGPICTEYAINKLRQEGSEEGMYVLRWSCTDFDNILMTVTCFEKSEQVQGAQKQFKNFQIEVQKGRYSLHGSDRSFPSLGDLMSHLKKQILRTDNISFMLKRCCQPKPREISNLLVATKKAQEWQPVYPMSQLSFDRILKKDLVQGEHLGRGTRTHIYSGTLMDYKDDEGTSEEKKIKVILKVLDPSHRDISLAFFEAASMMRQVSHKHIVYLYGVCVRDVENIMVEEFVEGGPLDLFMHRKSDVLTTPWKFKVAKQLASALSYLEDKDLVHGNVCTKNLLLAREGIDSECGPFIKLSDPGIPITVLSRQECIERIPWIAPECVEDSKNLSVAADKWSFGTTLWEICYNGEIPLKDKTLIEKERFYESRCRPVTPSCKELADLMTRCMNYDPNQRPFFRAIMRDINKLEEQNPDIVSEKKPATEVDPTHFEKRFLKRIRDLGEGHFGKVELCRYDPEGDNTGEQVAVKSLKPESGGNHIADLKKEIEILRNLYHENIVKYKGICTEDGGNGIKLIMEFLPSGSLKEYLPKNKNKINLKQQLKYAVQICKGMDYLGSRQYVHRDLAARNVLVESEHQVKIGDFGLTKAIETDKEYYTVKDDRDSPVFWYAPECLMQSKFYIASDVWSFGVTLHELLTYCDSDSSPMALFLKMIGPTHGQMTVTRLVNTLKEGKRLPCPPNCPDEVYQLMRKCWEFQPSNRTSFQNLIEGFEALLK
# experiment-description: JAK1 IC50 measurement
# Format: biochemical
Criterion: IC50 strictly under 0.1 µM. Met: true (1). Not met: false (0).

Q) Identify whether the compound CNC(=O)c1cnc2[nH]ccc2c1NC1CC(NCc2ccccc2)C1 (centres unmarked) [Compound 16a] records IC50 below 0.1 µM.
A) false (0)

Q) Identify whether the compound CNC(=O)c1cnc2[nH]ccc2c1NC1CC(NCc2cccc(Cl)c2)C1 (centres unmarked) [Compound 16b] records IC50 below 0.1 µM.
A) true (1)

Q) Identify whether the compound CNC(=O)c1cnc2[nH]ccc2c1NC1CC(NCc2ccc(Cl)cc2)C1 (centres unmarked) [Compound 16c] records IC50 below 0.1 µM.
A) true (1)

Q) Identify whether the compound CNC(=O)c1cnc2[nH]ccc2c1N[C@H]1CCCN(Cc2cccc(Cl)c2)C1 [Compound 18a] records IC50 below 0.1 µM.
A) false (0)

Q) Identify whether the compound CNC(=O)c1cnc2[nH]ccc2c1N[C@H]1CCCN(Cc2cccc(OC)c2)C1 [Compound 18b] records IC50 below 0.1 µM.
A) false (0)
